// provenance: patent US7138361B2

System: pigweed (Amaranthus retroflexus)
Assay: Test B preemergence
Format: in vivo
Details: preemergence; Rate 125 g/ha; scale 0 to 100, 0 no effect, 100 complete control
MEASUREMENT_KIND: Plant response rating, Pigweed
Output spec: single numeric token, no unit.

INSERT INTO assay_data (compound, measurement_kind, observed_result) VALUES
  ('CC(C)c1ccn(C2OCN(c3cccc(C(F)(F)F)c3)C2=O)n1 (centres unmarked)', 'Plant response rating, Pigweed', 100),
  ('CC(C)(C)c1nn(C2CCN(c3cccc(C(F)(F)F)c3)C2=O)cc1Cl (centres unmarked)', 'Plant response rating, Pigweed', 0),
  ('CC(C)c1ccn(C2SCN(c3cccc(C(F)(F)F)c3)C2=O)n1 (centres unmarked)', 'Plant response rating, Pigweed', 100),
  ('O=C1C(n2ccc(C3CC3)n2)CCN1c1cccc(C(F)(F)F)c1 (centres unmarked)', 'Plant response rating, Pigweed', 20),
  ('CC1CCc2cn(C3CCN(c4cccc(C(F)(F)F)c4)C3=O)nc21 (centres unmarked)', 'Plant response rating, Pigweed', 0);

Dear colleague, I am looking for the recorded Plant response rating, Pigweed of the following compound: Cc1cn(C2CCN(c3cccc(C(F)(F)F)c3)C2=O)nc1C(C)C (centres unmarked)
0

Dear colleague, I am looking for the recorded Plant response rating, Pigweed of the following compound: O=C1C(n2ccc(C3CC3)n2)SCN1c1cccc(C(F)(F)F)c1 (centres unmarked)
100

Dear colleague, I am looking for the recorded Plant response rating, Pigweed of the following compound: CCC(C)c1nn(C2CCN(c3cccc(C(F)(F)F)c3)C2=O)cc1Cl (centres unmarked)
0
